Molecular target: T1, human GITR expressed on cells (human, UniProt Q9Y5U5 26-241)
T1 sequence: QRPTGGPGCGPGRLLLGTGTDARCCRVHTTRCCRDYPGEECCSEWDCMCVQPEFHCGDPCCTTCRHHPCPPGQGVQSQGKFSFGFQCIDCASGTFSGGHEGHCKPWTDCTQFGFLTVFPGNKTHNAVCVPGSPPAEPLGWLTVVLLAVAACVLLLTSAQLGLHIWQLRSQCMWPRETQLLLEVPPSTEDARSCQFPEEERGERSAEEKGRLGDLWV
Assay: cell-based or functional assay
Quantity Name: EC50 in human HT1080 (IL-8 induction) (nM)
Kindly provide the numeric value in nM only, without the unit symbol.

ABP18 (antibody, human IgG1, kappa, N297A, V domains shown) VH: QVQLVQSGAEVKKPGSSVKVSCKASGGTFVRYAISWVRQAPGQGLEWMGGIIPIFGEAQYAQKFRGRATITADESTSTAYMELSSLRSEDTAVYYCAREGYYYGALPYWGQGTLVTVSS VL: EIVLTQSPATLSLSPGERATLSCRASQSVSSYLAWYQQKPGQAPRLLIYDASNRATGIPARFSGSGSGTDFTLTISSLEPEDFAVYYCQQHSVFPPTFGGGTKVEIKR | 2.1

Exercise: Record request: EC50 in human HT1080 (IL-8 induction) value, item ABP13 (antibody, human IgG1, kappa, N297A, V domains shown) VH: QVQLVQSGAEVKKPGSSVKVSCKASGGTFSRGAISWVRQAPGQGLEWMGGIIPIEGTAYYAQKFQGRVTITADESTGTAYMELSSLRSEDTAVYYCARQSDYGLPRGMDVWGQGTTVTVSS VL: DIQLTQSPSSVSASVGDRVTITCRASQGISSWLAWYQQKPGKAPKLLIYGASSLQSGVPSRFSGSGSGTDFTLTISSLQPEDFATYYCQQASLFPPTFGGGTKVEIKR
Key: 7.8

Exercise: How about ABP16 (antibody, human IgG1, kappa, N297A, V domains shown) VH: QVQLVQSGAEVKKPGSSVKVSCKASGGTFSSYAISWVRQAPGQGLEWMGGIIPISGFTNYAQKFQGKVTITADESTSTAYMELSSLRSEDTAVYYCAREGGHYYSGWPYWGQGTLVTVSS VL: EIVLTQSPATLSLSPGERATLSCRASQSVSSYLAWYQQKPGQAPRLLIYDASNRATGIPARFSGSGSGTDFTLTISSLEPEDFAVYYCQQRLVFPPTFGGGTKVEIKR ?
Key: 0.6

Exercise: How about ABP17 (antibody, human IgG1, kappa, N297A, V domains shown) VH: QVQLVQSGAEVKKPGSSVKVSCKASGGTFVRYAISWVRQAPGQGLEWMGGIIPIFGEAQYAQRFQGRVTITADESTSTAYMELSSLRSEDTAVYYCAREGYYYGALPYWGQGTLVTVSS VL: EIVLTQSPATLSLSPGERATLSCRASQSVSSYLAWYQQKPGQAPRLLIYDASNRATGIPARFSGSGSGTDFTLTISSLEPEDFAVYYCQQHSVFPPTFGGGTKVEIKR ?
Key: 5.3

Exercise: How about ABP14 (antibody, human IgG1, kappa, N297A, V domains shown) VH: QVQLVQSGAEVKKPGSSVKVSCKASGGTFSSYAISWVRQAPGQGLEWMGGIIPISGFTNYAQKFQGRVTITADESTSTAYMELSSLRSEDTAVYYCAREGGHYYSGWPYWGQGTLVTVSS VL: EIVLTQSPATLSLSPGERATLSCRASQSVSSYLAWYQQKPGQAPRLLIYDASNRATGIPARFSGSGSGTDFTLTISSLEPEDFAVYYCQQRLVFPPTFGGGTKVEIKR ?
Key: 0.6

Exercise: How about ABP15 (antibody, human IgG1, kappa, N297A, V domains shown) VH: QVQLVQSGAEVKKPGSSVKVSCKASGGTFSSYAISWVRQAPGQRLEWMGGIIPISGFTNYAQKFQGRVTITADESTSTAYMELSSLRSEDTAVYYCAREGGHYYSGWPYWGQGTLVTVSS VL: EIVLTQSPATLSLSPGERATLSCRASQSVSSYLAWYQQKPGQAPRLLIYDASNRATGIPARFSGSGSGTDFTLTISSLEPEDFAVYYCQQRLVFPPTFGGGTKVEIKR ?
Key: 0.6

Exercise: How about trimeric human GITR ligand (ligand, UniProt Q9UNG2 50-177, looked up) QLETAKEPCMAKFGPLPSKWQMASSEPPCVNKVSDWKLEILQNGLYLIYGQVAPNANYNDVAPFEVRLYKNKDMIQTLTNKSKIQNVGGTYELHVGDTIDLIFNSEHQVLKNNTYWGIILLANPQFIS ?
Key: 0.4
